Molecular target: T1, human GIP receptor (human, UniProt P48546 22-466)
T1 sequence (looked up): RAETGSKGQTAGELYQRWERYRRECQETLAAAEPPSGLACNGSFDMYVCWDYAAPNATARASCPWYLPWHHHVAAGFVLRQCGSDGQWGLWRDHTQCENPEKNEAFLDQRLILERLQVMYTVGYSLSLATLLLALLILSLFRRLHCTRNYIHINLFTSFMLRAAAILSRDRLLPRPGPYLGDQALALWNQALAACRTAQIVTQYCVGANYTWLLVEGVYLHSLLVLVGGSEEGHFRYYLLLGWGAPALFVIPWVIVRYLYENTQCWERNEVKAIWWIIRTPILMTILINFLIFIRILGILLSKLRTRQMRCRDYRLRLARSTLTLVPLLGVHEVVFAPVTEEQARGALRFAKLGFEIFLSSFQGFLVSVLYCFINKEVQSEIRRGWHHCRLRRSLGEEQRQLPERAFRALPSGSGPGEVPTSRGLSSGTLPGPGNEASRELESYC
Experiment: cell-based or functional assay
Numbered stars: 1 amine (or outer) side, 2 acyl side, 3 side chain; on linkers, the order of the positions; unused ones are H or OH. Square brackets hold non-standard residues; d marks the D form. Side chains are listed from the residue outwards. * marks the point of attachment. C20 diacid = O=C(O)CCCCCCCCCCCCCCCCCCC(=O)*; C18 diacid = O=C(O)CCCCCCCCCCCCCCCCC(=O)*; γGlu = O=C(O)[C@H](CCC(=O)[*:2])N[*:1]; Chem. 28 = not defined here; AEEA = NCCOCCOCC(=O)O; Aib = CC(C)(N)C(=O)O

| Binder | hGIPR Potency, no HSA, EC50 [pM] [pM] |
| --- | --- |
| Compound 94 (peptide) peptide: Y[Aib]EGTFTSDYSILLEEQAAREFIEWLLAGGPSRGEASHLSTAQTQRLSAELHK([AEEA-AEEA-γGlu-C20 diacid])LATLPRTETGSGSP-NH2 | 2.9 |
| Compound 33 (reading uncertain) peptide: Y[Aib]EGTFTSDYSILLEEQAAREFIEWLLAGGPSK(Chem. 28)GAPPEASELSTAALGRLSAELHELATLPRTETGSGSP-NH2 | 3.11 |
| Compound 100 (reading uncertain) peptide: H[Aib]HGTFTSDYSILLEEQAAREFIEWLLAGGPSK(Chem. 28)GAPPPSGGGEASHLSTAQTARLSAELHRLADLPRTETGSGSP-NH2 | 3.95 |
| Compound 34 (reading uncertain) peptide: Y[Aib]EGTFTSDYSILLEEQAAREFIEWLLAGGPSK(Chem. 28)GEASHLSTAQTQRLSAELHELATLPRTETGSGSP-NH2 | 1.7 |
| Compound 16 (peptide) peptide: H[Aib]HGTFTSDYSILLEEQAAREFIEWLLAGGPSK([AEEA-AEEA-γGlu-C20 diacid])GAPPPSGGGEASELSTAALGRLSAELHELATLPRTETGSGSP-NH2 | 4.27 |
| Compound 111 (peptide) peptide: Y[Aib]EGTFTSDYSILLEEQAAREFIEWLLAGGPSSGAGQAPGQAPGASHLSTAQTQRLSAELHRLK([AEEA-AEEA-AEEA-γGlu-C18 diacid])TLPRTETGSGSP-NH2 | 3.66 |
| Compound 53 (reading uncertain) peptide: Y[Aib]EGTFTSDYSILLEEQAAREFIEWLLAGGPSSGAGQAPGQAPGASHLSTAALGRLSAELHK(Chem. 28)LATLPRTETGSGSP-NH2 | 3.25 |
| Compound 82 (peptide) peptide: H[Aib]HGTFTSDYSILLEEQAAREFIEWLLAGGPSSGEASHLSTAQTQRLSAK([AEEA-AEEA-γGlu-C18 diacid])LHRLATLPRTETGSGSP-NH2 | 3.7 |
